B1: CPEB3 Ribozyme (parent)
chain: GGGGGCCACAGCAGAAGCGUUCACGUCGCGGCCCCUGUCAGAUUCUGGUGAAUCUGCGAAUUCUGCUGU

variants of: B1; experiment: self-cleavage, relative activity (ratio to wild type); higher = more cleavage; co-transcriptional
Quantity measured: self-cleavage

Study these solved cases before continuing.
• A42G G47C = 0.941
• A42U U46G = 1.01
• G47A G50A = 0.959
• C27U C29G = 0.114
• G48U U53A = 1
• G1A A8G = 0.0246
• C6G C22U = 0.106
• G3U A52U = 0.142

Entry under test: C6A G58C . Its self-cleavage was 0.567

Entry under test: C7G C35A . Its self-cleavage was 0.13

Entry under test: A16G G19A . Its self-cleavage was 0.163

Entry under test: A51C U53G . Its self-cleavage was 0.703

Entry under test: C35G G50C . Its self-cleavage was 0.401

Entry under test: A52G U53C . Its self-cleavage was 0.892
